Data provenance is ChEMBL document CHEMBL4627299.

Exercise: for every item that follows, state its recorded pIC50.
- targetOrTestSystem: Histone-lysine N-methyltransferase SETD7 (Homo sapiens)
- Sequence (Q8WTS6 whole entry): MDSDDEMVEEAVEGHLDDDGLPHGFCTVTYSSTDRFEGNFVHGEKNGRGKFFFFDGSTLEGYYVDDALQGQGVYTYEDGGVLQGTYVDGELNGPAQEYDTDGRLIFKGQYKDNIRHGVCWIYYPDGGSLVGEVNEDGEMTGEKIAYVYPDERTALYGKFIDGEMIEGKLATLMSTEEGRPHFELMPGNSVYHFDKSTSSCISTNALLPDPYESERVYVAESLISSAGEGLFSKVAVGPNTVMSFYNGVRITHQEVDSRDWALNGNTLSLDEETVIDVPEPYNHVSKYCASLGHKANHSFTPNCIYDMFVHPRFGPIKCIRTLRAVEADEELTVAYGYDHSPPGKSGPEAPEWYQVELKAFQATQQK
One number for each entry, as −log10 of the molar value.

Use these answered entries as a reference point.
{"columns": ["molecule", "targetOrTestSystem", "readoutNumber"],
 "data": [
  ["CC(C)=CC[C@@H](O)C1=CC(=O)c2c(O)ccc(O)c2C1=O [SHIKONIN]", "Histone-lysine N-methyltransferase SETD7 (Homo sapiens)", 4.67],
  ["O=c1cc(-c2ccc(O)cc2)oc2cc(O)c(O)c(O)c12 [SCUTELLAREIN]", "Histone-lysine N-methyltransferase SETD7 (Homo sapiens)", 5.71]
]}

Now consider a different molecule.
Name the recorded pIC50 of the item O=c1cc(-c2ccc(O)c(O)c2)oc2cc(O)cc(O)c12 [LUTEOLIN] in your answer. 5.22
